Target: T1, pm8 (Y15, Y16 and Y17 sulfated)
T1 construct: also called sulfated CCR8 N-terminal peptide pm8
T1 sequence (peptide, as listed by the source): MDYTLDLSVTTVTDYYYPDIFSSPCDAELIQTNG
Test: ELISA on coated peptide [cont.]
recorded_metric: binding result

binder	recorded_metric	reported_measurement
anti-CCR8 mAb 1-5 (antibody, V domains shown, Murine hybridoma mAb) VH: QVQLKESGPGLVAPSQSLSITCTVSGLSMNDYVVTWIRQPPGKGLEWLGVIWGGGNTYYNSDLKSRLSITKDNSKSQVFFKMSSLQTDDTAVYYCARRHRDYALDYWGQGISVTVSS VL: DVVMTQTPLSLPVSLGDQASISCRSSQSLVYSNGNTYLHWYLQKPGQSPKLLIYKVSNRFSGVPDRFSGSGSGTDFTLKISRVEAEDLGVYFCSQSTYVPPTFGGGTKLEIK	binding result	binds
anti-CCR8 mAb 1-1 (antibody, V domains shown, Murine hybridoma mAb) VH: EVQLLESGGGLVQPKGSLKLSCAASGFTFNPYAMNWVRQAPGRGLEWVARIRSKSNNYATYYADSVKDRFTISRDDSQDMLYLQMNNLKTEDTAMYYCVRGREAYYRYDGDYYAMDYWGQGTSVTVSS VL: DIVMTQAAPSVPVTPGESVSISCRSSKSLLHSNGNTYLYWFLQRPGQSPQLLIYRMSNLASGVPDRFSGSGSGTAFTLRISRVEAEDVGVYYCMQHLEYPFTFGSGTKLEIK	binding result	binds
anti-CCR8 mAb 1-24 (antibody, human IgG1, kappa, V domains shown, Humanized mAb, human IgG1 / kappa) VH: QVQLQQSGPEVVKPGASVKVSCKTSGYTFTEYTIHWVRQSHGQSLEWVGGINPNNGNTRYDQKFKGRVTITIDKSSSTAYMELRSLTSEDTAVYYCARVARSSGSGPYAMDYWGQGTTVTVSS VL: DVVMTQSPLSLPVTLGDQASISCRCSQSLLHTNGDTYLHWYLQRPGQSPRLLIYKVSNRFSGVPDRFSGSGSGTDFTLKISRVEAEDVGVYFCSQSTHVPYTFGGGTKVEIKR	binding result	binds

The reported numbers originate from patent US20260132208A1.
